B1: EPB41L3 (parent)
chain: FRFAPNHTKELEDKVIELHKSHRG

variants of: B1; assay: protein stability index of a GFP-peptide fusion (GPS, HEK-293T) (PSI 1-6); higher = more stable; conditions: c terminus: a fixed tail appended;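 note: lentivirally expressed fusions sorted by FACS into six bins by GFP to DsRed ratio, PSI derived from sequencing read proportions per bin multiplied by bin number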
Quick list: protein stability index per entry.

Would you please look over these solved cases?
[
  {
    "CHAIN_SEQUENCE": "FRFAPNHTKELEDKVIELHSSHRG [K20S]",
    "protein stability index": 1.67
  },
  {
    "CHAIN_SEQUENCE": "FRFASNHTKELEDKVIELHKSHRG [P5S]",
    "protein stability index": 1.92
  },
  {
    "CHAIN_SEQUENCE": "FRFAPNHTKGLEDKVIELHKSHRG [E10G]",
    "protein stability index": 2.04
  }
]

Problem: What measured protein stability index goes with FRFAPNHAKELEDKVIELHKSHRG [T8A] ?
Result: 2.11
